# Measurement Protocol: chemical genetic growth profiling, strain panel (AID 1159580);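 further: tested at 20 µM; growth read once vehicle control cultures reached saturation at 30 °C; lower values mean less growth of the strain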
# Condition Summary: S. cerevisiae deletion strains, growth OD, locus YDL101C, strain DUN1, active compounds read low
The campaign covered roughly 5,500 compounds. About 2,000 (36%) were called active. Another 18% or so got no clear call; they are omitted. This is one part of the list.
Quick rule for you: normalized growth under 1 gets criterion met, anything else gets criterion not met.

These recorded examples may help you get a feel for the data.
1) COc1ccc(-c2cc(=O)c3c(OC)cccc3o2)cc1; criterion not met
2) O=C1Nc2ccccc2/C1=N/N=C\c1ccccc1Cl; criterion met
3) COc1cccc2c1cc([N+](=O)[O-])c1c(C(=O)O)cc3c(c12)OCO3; criterion not met

Determine if O=C(/C=C/c1ccccc1)c1ccc(O)cc1 shows normalized growth strictly lower than 1.
criterion met

Determine if c1ccc(Sc2c(-c3ccccc3)nc3ccccn23)cc1 shows normalized growth strictly lower than 1.
criterion met

Determine if O=C1Nc2ccccc2/C1=N/N=C\c1cc(Br)cc(Br)c1O shows normalized growth strictly lower than 1.
criterion met

Determine if O=C1c2ccccc2O[C@@H](c2ccccc2)[C@@H]1NC1CCCCC1 shows normalized growth strictly lower than 1.
criterion met

Determine if O=C(NNC(=O)c1csc(-c2cccs2)n1)c1ccc(C(F)(F)F)cc1 shows normalized growth strictly lower than 1.
criterion met

Determine if Cc1ccc(C(O)(c2ccccc2)c2ccccc2)c2ccccc12 shows normalized growth strictly lower than 1.
criterion met
